Molecular target: E3 ubiquitin-protein ligase Mdm2/Histone deacetylase 3 (Homo sapiens) (UniProt Q00987+O15379)
Sequence (O15379 whole entry, looked up, one chain of several): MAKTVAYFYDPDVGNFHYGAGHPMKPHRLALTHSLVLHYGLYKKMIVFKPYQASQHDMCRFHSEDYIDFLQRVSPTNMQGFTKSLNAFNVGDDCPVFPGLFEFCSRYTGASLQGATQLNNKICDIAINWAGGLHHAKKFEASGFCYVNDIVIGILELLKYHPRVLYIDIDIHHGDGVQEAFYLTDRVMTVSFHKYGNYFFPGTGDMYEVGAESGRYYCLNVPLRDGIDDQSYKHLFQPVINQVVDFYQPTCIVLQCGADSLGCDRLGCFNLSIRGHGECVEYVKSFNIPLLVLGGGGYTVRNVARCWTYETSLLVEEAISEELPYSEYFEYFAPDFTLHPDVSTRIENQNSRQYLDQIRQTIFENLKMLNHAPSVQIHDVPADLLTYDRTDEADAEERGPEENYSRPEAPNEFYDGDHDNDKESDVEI
Assay: PROTAC activity at MDM2/HDAC3 in human HCT-116 cells assessed as reduction in HDAC3 abundance by measuring remaining activity at 1 uM measured after 24 hrs by Western blot analysis (reference value: 100%)
Format: cell-based
Assay endpoint: Activity (%)
Express the result in % but write the number alone.

Data request: Give the measured Activity of COc1cc(C(=O)NCCCCCCCC(=O)Nc2ccc(C(=O)Nc3ccccc3N)cc2)ccc1NC(=O)[C@@H]1N[C@@H](CC(C)(C)C)[C@](C#N)(c2ccc(Cl)cc2F)[C@H]1c1cccc(Cl)c1F .
Data returned: 114

More entries:
Data request: Data request, read-out Activity, for COc1cc(C(=O)NCCCCCCCCCCCC(=O)Nc2ccc(C(=O)Nc3ccccc3N)cc2)ccc1NC(=O)[C@@H]1N[C@@H](CC(C)(C)C)[C@](C#N)(c2ccc(Cl)cc2F)[C@H]1c1cccc(Cl)c1F
Data returned: 102

Data request: Any idea what Activity was measured for COc1cc(C(=O)NCCOCCOCCOCCOCCC(=O)Nc2ccc(C(=O)Nc3ccccc3N)cc2)ccc1NC(=O)[C@@H]1N[C@@H](CC(C)(C)C)[C@](C#N)(c2ccc(Cl)cc2F)[C@H]1c1cccc(Cl)c1F ?
Data returned: 104

Data request: What Activity value was documented for this compound, COc1cc(C(=O)NCCOCCOCCOCCC(=O)Nc2ccc(C(=O)Nc3ccccc3N)cc2)ccc1NC(=O)[C@@H]1N[C@@H](CC(C)(C)C)[C@](C#N)(c2ccc(Cl)cc2F)[C@H]1c1cccc(Cl)c1F ?
Data returned: 128

----------
Target: E3 ubiquitin-protein ligase Mdm2/Histone deacetylase 2 (Homo sapiens) (UniProt Q00987+Q92769)
Sequence (Q92769 whole entry, looked up, one chain of several): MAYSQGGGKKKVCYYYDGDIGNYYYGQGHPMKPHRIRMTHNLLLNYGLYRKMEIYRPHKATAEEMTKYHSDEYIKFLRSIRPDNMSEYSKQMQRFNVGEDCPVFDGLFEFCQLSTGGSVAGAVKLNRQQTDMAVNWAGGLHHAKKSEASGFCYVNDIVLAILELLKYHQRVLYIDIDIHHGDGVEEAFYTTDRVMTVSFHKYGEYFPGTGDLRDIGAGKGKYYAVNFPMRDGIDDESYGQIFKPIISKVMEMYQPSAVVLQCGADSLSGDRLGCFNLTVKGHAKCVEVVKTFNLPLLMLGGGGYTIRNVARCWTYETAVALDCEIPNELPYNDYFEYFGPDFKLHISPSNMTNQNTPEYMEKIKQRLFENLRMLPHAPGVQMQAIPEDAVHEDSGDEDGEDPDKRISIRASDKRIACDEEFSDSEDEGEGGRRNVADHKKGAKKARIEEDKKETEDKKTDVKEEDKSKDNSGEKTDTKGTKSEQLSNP
Test: PROTAC activity at MDM2/HDAC2 in human HCT-116 cells assessed as decrease in HDAC2 abundance by measuring remaining activity at 1 uM measured after 24 hrs by Western blot analysis (reference value: 100%)
Type: cell-based
Assay endpoint: Activity (%)
Express it in %; write the number only.

Example cases with answers are listed next.
Data request: Suppose we examine the compound COc1cc(C(=O)NCCOCCOCCOCCOCCC(=O)Nc2ccc(C(=O)Nc3ccccc3N)cc2)ccc1NC(=O)[C@@H]1N[C@@H](CC(C)(C)C)[C@](C#N)(c2ccc(Cl)cc2F)[C@H]1c1cccc(Cl)c1F ; what Activity value has been reported?
Data returned: 69

Data request: Please report the recorded Activity for COc1cc(C(=O)NCCCCCCCC(=O)Nc2ccc(C(=O)Nc3ccccc3N)cc2)ccc1NC(=O)[C@@H]1N[C@@H](CC(C)(C)C)[C@](C#N)(c2ccc(Cl)cc2F)[C@H]1c1cccc(Cl)c1F .
Data returned: 101

Data request: Could you tell me which Activity is on file for COc1cc(C(=O)NCCOCCOCCOCCC(=O)Nc2ccc(C(=O)Nc3ccccc3N)cc2)ccc1NC(=O)[C@@H]1N[C@@H](CC(C)(C)C)[C@](C#N)(c2ccc(Cl)cc2F)[C@H]1c1cccc(Cl)c1F ?
Data returned: 94

Read the next record carefully.
Data request: Reported Activity for COc1cc(C(=O)NCCCCCCCCCCCC(=O)Nc2ccc(C(=O)Nc3ccccc3N)cc2)ccc1NC(=O)[C@@H]1N[C@@H](CC(C)(C)C)[C@](C#N)(c2ccc(Cl)cc2F)[C@H]1c1cccc(Cl)c1F : what is it?
Data returned: 101

----------
Molecular target: E3 ubiquitin-protein ligase Mdm2/Histone deacetylase 3 (Homo sapiens) (UniProt Q00987+O15379)
Test: PROTAC activity at MDM2/HDAC3 in human HCT-116 cells assessed as reduction in HDAC3 abundance by measuring remaining activity at 0.1 uM measured after 24 hrs by Western blot analysis (reference value: 100%)
Type: cell-based
Assay endpoint: Activity (%)
Write it as a number; the unit % goes unstated.

Data request: Quick check: Activity of COc1cc(C(=O)NCCOCCOCCOCCC(=O)Nc2ccc(C(=O)Nc3ccccc3N)cc2)ccc1NC(=O)[C@@H]1N[C@@H](CC(C)(C)C)[C@](C#N)(c2ccc(Cl)cc2F)[C@H]1c1cccc(Cl)c1F ?
Data returned: 112

Data request: Consider the compound COc1cc(C(=O)NCCOCCOCCOCCOCCC(=O)Nc2ccc(C(=O)Nc3ccccc3N)cc2)ccc1NC(=O)[C@@H]1N[C@@H](CC(C)(C)C)[C@](C#N)(c2ccc(Cl)cc2F)[C@H]1c1cccc(Cl)c1F and give its measured Activity.
Data returned: 103

Data request: Which Activity is reported for this compound? COc1cc(C(=O)NCCCCCCCCCCCC(=O)Nc2ccc(C(=O)Nc3ccccc3N)cc2)ccc1NC(=O)[C@@H]1N[C@@H](CC(C)(C)C)[C@](C#N)(c2ccc(Cl)cc2F)[C@H]1c1cccc(Cl)c1F
Data returned: 101

Data request: Entry under review: COc1cc(C(=O)NCCCCCCCC(=O)Nc2ccc(C(=O)Nc3ccccc3N)cc2)ccc1NC(=O)[C@@H]1N[C@@H](CC(C)(C)C)[C@](C#N)(c2ccc(Cl)cc2F)[C@H]1c1cccc(Cl)c1F . Reported Activity?
Data returned: 114

----------
Biological target: E3 ubiquitin-protein ligase Mdm2/Histone deacetylase 1 (Homo sapiens) (UniProt Q00987+Q13547)
Sequence (Q00987 whole entry, looked up): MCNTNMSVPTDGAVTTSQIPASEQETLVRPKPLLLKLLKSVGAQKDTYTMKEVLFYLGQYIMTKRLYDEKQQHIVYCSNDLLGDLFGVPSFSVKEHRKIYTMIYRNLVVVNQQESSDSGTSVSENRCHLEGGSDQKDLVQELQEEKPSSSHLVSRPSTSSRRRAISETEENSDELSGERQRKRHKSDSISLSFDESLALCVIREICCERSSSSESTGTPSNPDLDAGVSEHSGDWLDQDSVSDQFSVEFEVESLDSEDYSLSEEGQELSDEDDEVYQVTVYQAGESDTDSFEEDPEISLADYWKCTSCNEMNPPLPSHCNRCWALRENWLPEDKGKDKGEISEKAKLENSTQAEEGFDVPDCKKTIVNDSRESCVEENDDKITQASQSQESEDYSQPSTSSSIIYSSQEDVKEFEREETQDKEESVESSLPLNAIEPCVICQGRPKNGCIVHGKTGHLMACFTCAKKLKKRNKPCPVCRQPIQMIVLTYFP
Sequence (Q13547 whole entry, looked up): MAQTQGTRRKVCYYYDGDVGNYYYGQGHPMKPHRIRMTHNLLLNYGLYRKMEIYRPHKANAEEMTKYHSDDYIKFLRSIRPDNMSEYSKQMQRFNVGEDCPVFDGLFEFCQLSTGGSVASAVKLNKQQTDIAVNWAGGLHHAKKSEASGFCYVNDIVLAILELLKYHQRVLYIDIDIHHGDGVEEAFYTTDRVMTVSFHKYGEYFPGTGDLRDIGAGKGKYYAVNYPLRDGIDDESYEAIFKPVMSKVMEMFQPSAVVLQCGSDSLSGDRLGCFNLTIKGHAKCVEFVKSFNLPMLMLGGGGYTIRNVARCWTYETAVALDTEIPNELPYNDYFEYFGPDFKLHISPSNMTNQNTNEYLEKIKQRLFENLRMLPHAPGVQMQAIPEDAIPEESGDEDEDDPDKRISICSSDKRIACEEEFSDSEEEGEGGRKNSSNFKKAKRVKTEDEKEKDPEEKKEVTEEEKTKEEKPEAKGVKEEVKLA
Experiment: PROTAC activity at MDM2/HDAC1 in human HCT-116 cells assessed as decrease in HDAC1 abundance by measuring remaining activity at 10 uM measured after 24 hrs by Western blot analysis (reference value: 100%)
Type: cell-based
Below, each entry is listed alongside its reported Activity.

Data request: For the compound COc1cc(C(=O)NCCCCCCCCCCCC(=O)Nc2ccc(C(=O)Nc3ccccc3N)cc2)ccc1NC(=O)[C@@H]1N[C@@H](CC(C)(C)C)[C@](C#N)(c2ccc(Cl)cc2F)[C@H]1c1cccc(Cl)c1F , what Activity is on record?
Data returned: 109%

More entries:
Data request: Can you look up the measured Activity of COc1cc(C(=O)NCCCCCCCC(=O)Nc2ccc(C(=O)Nc3ccccc3N)cc2)ccc1NC(=O)[C@@H]1N[C@@H](CC(C)(C)C)[C@](C#N)(c2ccc(Cl)cc2F)[C@H]1c1cccc(Cl)c1F for me?
Data returned: 101%

Data request: Which Activity is listed for COc1cc(C(=O)NCCOCCOCCOCCC(=O)Nc2ccc(C(=O)Nc3ccccc3N)cc2)ccc1NC(=O)[C@@H]1N[C@@H](CC(C)(C)C)[C@](C#N)(c2ccc(Cl)cc2F)[C@H]1c1cccc(Cl)c1F ?
Data returned: 65%

Data request: Requested read-out: Activity. Entry: COc1cc(C(=O)NCCOCCOCCOCCOCCC(=O)Nc2ccc(C(=O)Nc3ccccc3N)cc2)ccc1NC(=O)[C@@H]1N[C@@H](CC(C)(C)C)[C@](C#N)(c2ccc(Cl)cc2F)[C@H]1c1cccc(Cl)c1F
Data returned: 36%

----------
Biological target: E3 ubiquitin-protein ligase Mdm2/Histone deacetylase 1 (Homo sapiens) (UniProt Q00987+Q13547)
Assay: PROTAC activity at MDM2/HDAC1 in human HCT-116 cells assessed as decrease in HDAC1 abundance by measuring remaining activity at 0.1 uM measured after 24 hrs by Western blot analysis (reference value: 100%)
Format: cell-based
# maps each entry to its Activity
Value expressed in %; do not type the unit.

Data request: Fill in the blank: the reported Activity of COc1cc(C(=O)NCCCCCCCCCCCC(=O)Nc2ccc(C(=O)Nc3ccccc3N)cc2)ccc1NC(=O)[C@@H]1N[C@@H](CC(C)(C)C)[C@](C#N)(c2ccc(Cl)cc2F)[C@H]1c1cccc(Cl)c1F is ____.
Data returned: 98

Data request: Which value of Activity has been reported for COc1cc(C(=O)NCCOCCOCCOCCOCCC(=O)Nc2ccc(C(=O)Nc3ccccc3N)cc2)ccc1NC(=O)[C@@H]1N[C@@H](CC(C)(C)C)[C@](C#N)(c2ccc(Cl)cc2F)[C@H]1c1cccc(Cl)c1F in the records?
Data returned: 84

Data request: # Activity lookup, item COc1cc(C(=O)NCCCCCCCC(=O)Nc2ccc(C(=O)Nc3ccccc3N)cc2)ccc1NC(=O)[C@@H]1N[C@@H](CC(C)(C)C)[C@](C#N)(c2ccc(Cl)cc2F)[C@H]1c1cccc(Cl)c1F
Data returned: 93

Data request: What measured Activity goes with COc1cc(C(=O)NCCOCCOCCOCCC(=O)Nc2ccc(C(=O)Nc3ccccc3N)cc2)ccc1NC(=O)[C@@H]1N[C@@H](CC(C)(C)C)[C@](C#N)(c2ccc(Cl)cc2F)[C@H]1c1cccc(Cl)c1F ?
Data returned: 91

----------
Reported Activity values for the following compounds.
Target: E3 ubiquitin-protein ligase Mdm2/Histone deacetylase 3 (Homo sapiens) (UniProt Q00987+O15379)
Assay: PROTAC activity at MDM2/HDAC3 in human HCT-116 cells assessed as reduction in HDAC3 abundance by measuring remaining activity at 10 uM measured after 24 hrs by Western blot analysis (reference value: 100%)
Assay type: cell-based
Respond with the bare value in %.

Data request: # input compound: COc1cc(C(=O)NCCCCCCCC(=O)Nc2ccc(C(=O)Nc3ccccc3N)cc2)ccc1NC(=O)[C@@H]1N[C@@H](CC(C)(C)C)[C@](C#N)(c2ccc(Cl)cc2F)[C@H]1c1cccc(Cl)c1F ; wanted: its Activity
Data returned: 109

Data request: Which measured Activity value corresponds to COc1cc(C(=O)NCCOCCOCCOCCC(=O)Nc2ccc(C(=O)Nc3ccccc3N)cc2)ccc1NC(=O)[C@@H]1N[C@@H](CC(C)(C)C)[C@](C#N)(c2ccc(Cl)cc2F)[C@H]1c1cccc(Cl)c1F ?
Data returned: 122

Data request: Would you mind telling me what Activity value was observed for COc1cc(C(=O)NCCOCCOCCOCCOCCC(=O)Nc2ccc(C(=O)Nc3ccccc3N)cc2)ccc1NC(=O)[C@@H]1N[C@@H](CC(C)(C)C)[C@](C#N)(c2ccc(Cl)cc2F)[C@H]1c1cccc(Cl)c1F ?
Data returned: 91

Next:
Data request: Given COc1cc(C(=O)NCCCCCCCCCCCC(=O)Nc2ccc(C(=O)Nc3ccccc3N)cc2)ccc1NC(=O)[C@@H]1N[C@@H](CC(C)(C)C)[C@](C#N)(c2ccc(Cl)cc2F)[C@H]1c1cccc(Cl)c1F , state its recorded Activity.
Data returned: 118
